# test-description: total protein half-life in vivo (active degradation + dilution); higher = more stable protein
# condition: wild type E. coli NCM3722; growth: C-lim chemostat; doubling time 3 h
Below, each entry is listed alongside its reported total protein half-life in vivo.
value-kind: total protein half-life in vivo (h)

INSERT INTO assay_data (residue_sequence, value_kind, output_unit, observed_measurement) VALUES
  ('MAYSKIRQPKLSDVIEQQLEFLILEGTLRPGEKLPPERELAKQFDVSRPSLREAIQRLEAKGLLLRRQGGGTFVQSSLWQSFSDPLVELLSDHPESQYDLLETRHALEGIAAYYAALRSTDEDKERIRELHHAIELAQQSGDLDAESNAVLQYQIAVTEAAHNVVLLHLLRCMEPMLAQNVRQNFELLYSRREMLPLVSSHRTRIFEAIMAGKPEEAREASHRHLAFIEEILLDRSREESRRERSLRRLEQRKN [P0ACL9]', 'total protein half-life in vivo', 'h', 2.94),
  ('MAISSRNTLLAALAFIAFQAQAVNVTVAYQTSAEPAKVAQADNTFAKESGATVDWRKFDSGASIVRALASGDVQIGNLGSSPLAVAASQQVPIEVFLLASKLGNSEALVVKKTISKPEDLIGKRIAVPFISTTHYSLLAALKHWGIKPGQVEIVNLQPPAIIAAWQRGDIDGAYVWAPAVNALEKDGKVLTDSEQVGQWGAPTLDVWVVRKDFAEKHPEVVKAFAKSAIDAQQPYIANPDVWLKQPENISKLARLSGVPEGDVPGLVKGNTYLTPQQQTAELTGPVNKAIIDTAQFLKEQGKVPAVANDYSQYVTSRFVQ', 'total protein half-life in vivo', 'h', 2.98),
  ('MSTLRLLISDSYDPWFNLAVEECIFRQMPATQRVLFLWRNADTVVIGRAQNPWKECNTRRMEEDNVRLARRSSGGGAVFHDLGNTCFTFMAGKPEYDKTISTSIVLNALNALGVSAEASGRNDLVVKTVEGDRKVSGSAYRETKDRGFHHGTLLLNADLSRLANYLNPDKKKLAAKGITSVRSRVTNLTELLPGITHEQVCEAITEAFFAHYGERVEAEIISPNKTPDLPNFAETFARQSSWEWNFGQAPAFSHLLDERFTWGGVELHFDVEKGHITRAQVFTDSLNPAPLEALAGRLQGCLYRADMLQQECEALLVDFPEQEKELRELSAWMAGAVR', 'total protein half-life in vivo', 'h', 2.93);
